Where do these numbers come from? They come from ChEMBL document CHEMBL4052710.

# Target Under Test: CDK4/Cyclin D3 (Homo sapiens)
# Sequence (P11802 whole entry): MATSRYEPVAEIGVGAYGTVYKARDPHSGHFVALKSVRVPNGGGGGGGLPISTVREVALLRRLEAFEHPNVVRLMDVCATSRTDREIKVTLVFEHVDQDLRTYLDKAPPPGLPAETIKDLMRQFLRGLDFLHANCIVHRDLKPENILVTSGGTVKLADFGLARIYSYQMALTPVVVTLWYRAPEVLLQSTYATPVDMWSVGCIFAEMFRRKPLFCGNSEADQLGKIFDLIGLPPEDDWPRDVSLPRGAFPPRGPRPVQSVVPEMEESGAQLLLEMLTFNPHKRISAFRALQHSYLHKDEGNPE
# Sequence (P30281 whole entry, further chain): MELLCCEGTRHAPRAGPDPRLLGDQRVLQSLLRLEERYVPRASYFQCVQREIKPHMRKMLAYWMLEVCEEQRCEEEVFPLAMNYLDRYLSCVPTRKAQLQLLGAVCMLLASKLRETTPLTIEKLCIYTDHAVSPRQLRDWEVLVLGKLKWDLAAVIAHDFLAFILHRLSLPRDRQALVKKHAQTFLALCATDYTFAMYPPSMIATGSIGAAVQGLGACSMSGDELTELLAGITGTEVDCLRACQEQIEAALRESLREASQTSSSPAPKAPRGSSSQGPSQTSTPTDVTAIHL
# Assay Details: Inhibition of human CDK4/CyclinD3 by enzymatic radiometric assay
Property Measured: pIC50
# pIC50 = -log10(concentration in molar units)

Provide pIC50, tested on CDK4/Cyclin D3 (Homo sapiens), for `CN(C)C(=O)c1cc2cnc(Nc3ccc(NC(=O)C4(C(=O)Nc5ccc(F)cc5)CC4)cc3)nc2n1C1CCCC1` .
6.85

###

Each record here notes measured inhibition.
# Target Under Test: Vascular endothelial growth factor receptor 2 (Homo sapiens, UniProt P35968)
# Sequence (P35968 whole entry): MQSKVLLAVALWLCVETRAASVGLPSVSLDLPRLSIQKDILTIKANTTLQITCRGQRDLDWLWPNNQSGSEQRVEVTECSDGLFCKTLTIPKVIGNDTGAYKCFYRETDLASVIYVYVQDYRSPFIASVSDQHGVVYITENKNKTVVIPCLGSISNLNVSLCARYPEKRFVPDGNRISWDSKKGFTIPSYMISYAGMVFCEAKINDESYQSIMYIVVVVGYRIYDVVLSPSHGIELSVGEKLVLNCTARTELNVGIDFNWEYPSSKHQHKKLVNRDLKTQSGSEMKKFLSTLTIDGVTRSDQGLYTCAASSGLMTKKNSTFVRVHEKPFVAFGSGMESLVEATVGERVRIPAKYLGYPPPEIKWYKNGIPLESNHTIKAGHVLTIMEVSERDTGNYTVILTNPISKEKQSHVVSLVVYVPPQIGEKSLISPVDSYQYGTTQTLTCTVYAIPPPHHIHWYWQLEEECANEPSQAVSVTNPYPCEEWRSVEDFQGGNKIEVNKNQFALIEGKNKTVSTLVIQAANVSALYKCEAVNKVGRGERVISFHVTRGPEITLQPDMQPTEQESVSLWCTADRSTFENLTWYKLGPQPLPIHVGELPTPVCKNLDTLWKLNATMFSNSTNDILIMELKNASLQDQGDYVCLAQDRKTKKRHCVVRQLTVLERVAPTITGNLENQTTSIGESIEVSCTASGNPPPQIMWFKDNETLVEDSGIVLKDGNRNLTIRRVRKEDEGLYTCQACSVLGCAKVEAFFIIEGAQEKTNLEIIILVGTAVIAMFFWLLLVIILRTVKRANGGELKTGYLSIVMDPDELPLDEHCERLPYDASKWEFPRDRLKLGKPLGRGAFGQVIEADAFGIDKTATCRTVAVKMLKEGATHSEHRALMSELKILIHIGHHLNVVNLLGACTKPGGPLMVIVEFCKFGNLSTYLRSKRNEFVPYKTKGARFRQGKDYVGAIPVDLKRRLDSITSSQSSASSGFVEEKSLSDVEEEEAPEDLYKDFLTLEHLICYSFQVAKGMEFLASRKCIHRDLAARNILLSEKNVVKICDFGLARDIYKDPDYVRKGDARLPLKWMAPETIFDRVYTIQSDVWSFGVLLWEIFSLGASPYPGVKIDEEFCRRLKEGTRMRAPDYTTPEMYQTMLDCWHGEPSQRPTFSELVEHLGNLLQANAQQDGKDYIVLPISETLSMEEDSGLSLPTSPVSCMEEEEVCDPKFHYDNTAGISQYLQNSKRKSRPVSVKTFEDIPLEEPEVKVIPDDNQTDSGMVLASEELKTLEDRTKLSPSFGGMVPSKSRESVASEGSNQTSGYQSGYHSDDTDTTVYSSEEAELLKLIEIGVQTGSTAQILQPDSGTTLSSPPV
# Assay Details: Inhibition of human VEGFR2 at 1 uM by enzymatic radiometric assay
State the answer as a number, implicitly in %.

Some solved entries appear below for comparison.
> print(dat)
                                 cpd.smiles  property.measured  value
1  COc1cccc(NC(=O)C2(C(=O)Nc3ccc(Nc4ncc5cc(C(=O)N(C)C)n(C6CCCC6)c5n4)cc3)CC2)c1         inhibition     -2
2  CN(C)C(=O)c1cc2cnc(Nc3ccc(NC(=O)C4(C(=O)Nc5ccc(Br)cc5)CC4)cc3)nc2n1C1CCCC1         inhibition     26
3  CN(C)C(=O)c1cc2cnc(Nc3ccc(NC(=O)C4(C(=O)Nc5ccccc5F)CC4)cc3)nc2n1C1CCCC1         inhibition     -2
4  CN(C)C(=O)c1cc2cnc(Nc3ccc(NC(=O)C4(C(=O)Nc5ccc(F)cc5)CC4)cn3)nc2n1C1CCCC1         inhibition     -3
5  CN(C)C(=O)c1cc2cnc(Nc3ccc(NC(=O)C4(C(=O)Nc5cccc(C#N)c5)CC4)cc3)nc2n1C1CCCC1         inhibition     29

Look up inhibition of `COc1ccc(NC(=O)C2(C(=O)Nc3ccc(Nc4ncc5cc(C(=O)N(C)C)n(C6CCCC6)c5n4)cc3)CC2)cc1` and report it.
19

Determine from records and report inhibition for `CN(C)C(=O)c1cc2cnc(Nc3ccc(NC(=O)C4(C(=O)Nc5ccc(C(F)(F)F)cc5)CC4)cc3)nc2n1C1CCCC1`
1
